Target: E340D mutant bovine olfactory CNG channel (Bos taurus, UniProt Q03041, E340D)
Sequence (Q03041 whole entry E340D): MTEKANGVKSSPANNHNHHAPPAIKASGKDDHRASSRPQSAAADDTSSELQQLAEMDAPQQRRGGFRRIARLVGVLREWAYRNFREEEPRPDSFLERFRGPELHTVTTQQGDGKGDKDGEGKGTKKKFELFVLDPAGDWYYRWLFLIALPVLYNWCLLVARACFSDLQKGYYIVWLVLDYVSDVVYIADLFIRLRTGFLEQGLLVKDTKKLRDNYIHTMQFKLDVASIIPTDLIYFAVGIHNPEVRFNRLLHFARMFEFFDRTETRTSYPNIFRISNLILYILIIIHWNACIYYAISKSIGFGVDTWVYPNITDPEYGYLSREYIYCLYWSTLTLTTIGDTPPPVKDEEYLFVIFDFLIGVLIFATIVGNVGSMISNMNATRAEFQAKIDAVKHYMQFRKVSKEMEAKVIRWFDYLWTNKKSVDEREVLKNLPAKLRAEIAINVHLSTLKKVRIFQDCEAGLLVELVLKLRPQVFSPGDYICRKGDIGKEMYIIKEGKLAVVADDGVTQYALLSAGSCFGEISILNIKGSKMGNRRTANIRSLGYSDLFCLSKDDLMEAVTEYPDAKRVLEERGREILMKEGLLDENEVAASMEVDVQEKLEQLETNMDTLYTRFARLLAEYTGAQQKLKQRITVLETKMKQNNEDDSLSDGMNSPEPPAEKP
Experiment: Blockage of macroscopic current by external Ca2+ or Mg2+, outside-out patches
Format: biochemical
Conditions: external Mg2+, −80 mV, mean ± SD
assay_endpoint: Ki (µM)
Report the figure in µM without appending any unit label.

Kindly note the recorded Ki for [Mg+2] , which is 53

====

Biological target: E340D mutant bovine olfactory CNG channel (Bos taurus, UniProt Q03041, E340D)
Experiment: Blockage of macroscopic current by external Ca2+ or Mg2+, outside-out patches
Format: biochemical
Details: external Ca2+, −80 mV, mean ± SD
assay_endpoint: Ki (µM)
Report the figure in µM without appending any unit label.

Kindly note the recorded Ki for [Ca+2] [Ca^2+] , which is 47
